Documented protein stability index across a set of sequences
experiment: protein stability index of a GFP-peptide fusion (GPS, HEK-293T) (PSI 1-6); higher = more stable; settings: treatment: DMSO; c terminus: a fixed tail appended;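 note: 24-mer peptide tiles fused after GFP, lentivirally expressed, FACS-sorted into six equal bins by GFP/DsRed ratio, decoded by Illumina sequencing, PSI is the read-weighted mean bin number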
Answer with a bare number; do not write a unit.

INSERT INTO measurements (polymer_sequence, recorded_endpoint, reported) VALUES
  ('FYKRRGASDLSSEEGWRLFKIDKE [SAT1]', 'protein stability index', 3.32),
  ('MFGLVIPLGVLQAIAMYFLPPSPR [SLC2A12]', 'protein stability index', 2.46),
  ('VRAKGSQSGRHLQTHSNTIVVSLQ [STX5]', 'protein stability index', 2.48),
  ('RCFYTRKDVRRHLVVHTGCKDFLC [PLAGL1]', 'protein stability index', 2.11),
  ('AKPGSTEKGLPLRKTHVLLGRSHD [MFSD9]', 'protein stability index', 3.79),
  ('SIPLTPGDTPIRKKEELLFDDGDD [FBF1]', 'protein stability index', 5.51),
  ('TSDAAFLTQWKDSLVSLVLYNMDL [ZER1]', 'protein stability index', 2.71),
  ('KWTGDFFNKGIYDIHVGLRGVPLL [CLCN6]', 'protein stability index', 2.86),
  ('HPRALPPDARPHRRPHELLPVGGR [HAGHL]', 'protein stability index', 4.48),
  ('DFPDILEQQRKLETYLQNHFAEEE [TENT5C]', 'protein stability index', 4.45);

Okay, next one:
Item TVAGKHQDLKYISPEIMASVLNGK [CDC25A] has what recorded protein stability index?
3.17
